This section presents molecules with their documented EC50 values.
Biological target: TDO2 (Homo sapiens)
Construct: decreased levels of NFK in SW48 cells (high TDO expressing cells)
Sequence (P48775 whole entry): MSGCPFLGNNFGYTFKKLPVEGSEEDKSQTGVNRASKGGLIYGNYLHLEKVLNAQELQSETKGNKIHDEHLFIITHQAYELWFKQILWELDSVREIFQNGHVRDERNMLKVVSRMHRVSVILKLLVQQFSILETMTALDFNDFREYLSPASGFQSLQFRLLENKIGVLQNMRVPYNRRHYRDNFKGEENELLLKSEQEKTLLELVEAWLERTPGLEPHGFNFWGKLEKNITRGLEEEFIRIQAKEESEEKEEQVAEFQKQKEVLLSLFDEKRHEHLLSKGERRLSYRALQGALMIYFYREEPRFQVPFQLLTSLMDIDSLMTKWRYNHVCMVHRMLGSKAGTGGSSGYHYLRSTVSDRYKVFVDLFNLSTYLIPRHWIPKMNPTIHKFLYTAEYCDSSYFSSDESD
Assay: TDO2 cell assay (NFK GreenScreen, SW48 cells)
Assay type: cell-based
Conditions: SW48 cells (high TDO expressing), 200 uM tryptophan, 24 hours; Table 3; read-out: TDO2 Cell Fluor EC50
Numeric only. Scale: µM

>  <molecule>
CC1(C)COCC(C2c3ccccc3-c3cncn32)C1O (single isomer, unassigned) [Example 66d]

>  <measured attribute>
EC50

>  <readout number>
2

$$$$

May I ask what EC50 has been recorded for OC1C(C2c3ccccc3-c3cncn32)CC12CCOCC2 (single isomer, unassigned) [Example 57b] ? 5

Which value of EC50 has been reported for O=S1(=O)CC(O)C(C2c3ccccc3-c3cncn32)C1 (single isomer, unassigned) [Example 38b] in the records? 0.15

Reported EC50 for OC1C(C2c3ccccc3-c3cncn32)CCC12CCOCC2 (single isomer, unassigned) [Example 68f] : what is it? 0.12

Look at this molecule and give its reported EC50. OC1CC2(CC2)C1C1c2ccccc2-c2cncn21 (single isomer, unassigned) [Example 72b] 0.65

Tell me the measured EC50 of CC1(C)CCCC(C2c3ccccc3-c3cncn32)C1O (single isomer, unassigned) [Example 24c] , please. 5.5
